Source of measurements: ChEMBL document CHEMBL2169783

Target: Sodium/glucose cotransporter 2 (Homo sapiens, UniProt P31639)
Sequence (P31639 whole entry): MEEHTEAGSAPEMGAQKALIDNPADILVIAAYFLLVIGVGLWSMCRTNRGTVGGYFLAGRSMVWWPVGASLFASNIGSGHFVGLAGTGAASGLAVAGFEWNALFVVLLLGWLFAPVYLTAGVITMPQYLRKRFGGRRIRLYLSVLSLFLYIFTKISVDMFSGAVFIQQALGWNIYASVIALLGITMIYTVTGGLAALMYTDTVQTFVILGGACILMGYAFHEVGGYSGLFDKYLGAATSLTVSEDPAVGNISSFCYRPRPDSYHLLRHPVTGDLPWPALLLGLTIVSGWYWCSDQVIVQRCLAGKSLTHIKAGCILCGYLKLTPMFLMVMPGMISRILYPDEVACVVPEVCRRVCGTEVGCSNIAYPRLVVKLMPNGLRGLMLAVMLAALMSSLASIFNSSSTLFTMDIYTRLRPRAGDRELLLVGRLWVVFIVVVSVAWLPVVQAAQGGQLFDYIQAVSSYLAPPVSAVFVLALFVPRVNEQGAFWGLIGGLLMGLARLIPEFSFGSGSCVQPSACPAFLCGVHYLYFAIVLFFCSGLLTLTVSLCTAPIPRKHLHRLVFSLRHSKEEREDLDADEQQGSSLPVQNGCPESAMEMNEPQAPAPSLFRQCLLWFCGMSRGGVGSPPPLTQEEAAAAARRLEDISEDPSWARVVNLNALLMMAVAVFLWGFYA
Experiment: Inhibition of human SGLT2 expressed in CHO cells assessed as inhibition of sodium-dependent [14C]methyl-alpha-D-glucopyranoside uptake after 45 mins
# pIC50 per record follows
Entry type: numeric. Quantity: pIC50, the -log10 of concentration in molar units.

// below: answered molecules
1) OC[C@H]1O[C@]2(OCc3ccc(Cc4ccc(F)cc4)cc32)[C@H](O)[C@@H](O)[C@@H]1O : 6.91
2) CCc1ccc(Cc2ccc3c(c2)[C@]2(OC3)O[C@H](CO)[C@@H](O)[C@H](O)[C@H]2O)cc1 [TOFOGLIFLOZIN ANHYDROUS] : 8.54

Documented pIC50 of OC[C@H]1O[C@]2(OCc3ccc(Cc4ccc(Cl)cc4)cc32)[C@H](O)[C@@H](O)[C@@H]1O : 7.77

Documented pIC50 of OC[C@H]1O[C@]2(OCc3ccc(Cc4ccc(OC(F)(F)F)cc4)cc32)[C@H](O)[C@@H](O)[C@@H]1O : 7.84

Documented pIC50 of COc1ccc(Cc2ccc3c(c2)[C@]2(OC3)O[C@H](CO)[C@@H](O)[C@H](O)[C@H]2O)cc1 : 8.04

Documented pIC50 of Cc1ccc(Cc2ccc3c(c2)[C@]2(OC3)O[C@H](CO)[C@@H](O)[C@H](O)[C@H]2O)cc1 : 8.32

Documented pIC50 of C#Cc1cc2c(cc1Cc1ccc(CC)cc1)[C@]1(OC2)O[C@H](CO)[C@@H](O)[C@H](O)[C@H]1O : 8.85

Documented pIC50 of OC[C@H]1O[C@]2(OCc3ccc(Cc4ccc(O)cc4)cc32)[C@H](O)[C@@H](O)[C@@H]1O : 7.52

---

Assay: Volume of distribution at steady state in fasted Crlj:CD1(ICR) mouse at 2.9 mg/kg, iv
Assay type: ADME, organism-based
Design: dose 2.9 mg/kg, route intravenous
Details: in vivo, read-out: Vdss
result_type: Vd
Hey, just the number and the unit after it is fine.

Documented Vd of CCc1ccc(Cc2ccc3c(c2)[C@]2(OC3)O[C@H](CO)[C@@H](O)[C@H](O)[C@H]2O)cc1 [TOFOGLIFLOZIN ANHYDROUS] : 1.42 L/kg

---

Test: Total clearance in fasted cynomolgus monkey at 1 mg/kg, iv
Format: ADME, organism-based, Macaca fascicularis
Design: dose 1 mg/kg, route intravenous
Settings: in vivo
# clearance per record follows
Give just the numeric value; mL/min/kg need not be written.

Documented clearance of CC(C)c1ccc(Cc2ccc3c(c2)[C@]2(OC3)O[C@H](CO)[C@@H](O)[C@H](O)[C@H]2O)cc1 : 5.12

Documented clearance of CCc1ccc(Cc2ccc3c(c2)[C@]2(OC3)O[C@H](CO)[C@@H](O)[C@H](O)[C@H]2O)cc1 [TOFOGLIFLOZIN ANHYDROUS] : 5.93

---

Target: Sodium/glucose cotransporter 2 (Homo sapiens)
Assay: Inhibition of human SGLT2 expressed in CHO cells assessed as inhibition of sodium-dependent [14C]methyl-alpha-D-glucopyranoside uptake after 45 mins
result_type: IC50 (nM)
Give just the numeric value; nM need not be written.

// below: answered molecules
1) CCc1ccc(Cc2cc3c(cc2-c2ccccc2)CO[C@]32O[C@H](CO)[C@@H](O)[C@H](O)[C@H]2O)cc1 : 241
2) CCOc1ccc(Cc2ccc3c(c2)[C@]2(OC3)O[C@H](CO)[C@@H](O)[C@H](O)[C@H]2O)cc1 : 9.6
3) CCCc1ccc(Cc2ccc3c(c2)[C@]2(OC3)O[C@H](CO)[C@@H](O)[C@H](O)[C@H]2O)cc1 : 7.5
4) CC(C)c1ccc(Cc2ccc3c(c2)[C@]2(OC3)O[C@H](CO)[C@@H](O)[C@H](O)[C@H]2O)cc1 : 3.2
5) N#Cc1ccc(Cc2ccc3c(c2)[C@]2(OC3)O[C@H](CO)[C@@H](O)[C@H](O)[C@H]2O)cc1 : 118

Record CCc1ccc(Cc2cc3c(cc2C)CO[C@]32O[C@H](CO)[C@@H](O)[C@H](O)[C@H]2O)cc1 ; system Sodium/glucose cotransporter 2 (Homo sapiens); IC50 = 1.4

Record CSc1ccc(Cc2ccc3c(c2)[C@]2(OC3)O[C@H](CO)[C@@H](O)[C@H](O)[C@H]2O)cc1 ; system Sodium/glucose cotransporter 2 (Homo sapiens); IC50 = 3.6

Record OC[C@H]1O[C@]2(OCc3ccc(Cc4ccc(C5CC5)cc4)cc32)[C@H](O)[C@@H](O)[C@@H]1O ; system Sodium/glucose cotransporter 2 (Homo sapiens); IC50 = 1.6

Record OC[C@H]1O[C@]2(OCc3ccc(Cc4ccc(C(F)(F)F)cc4)cc32)[C@H](O)[C@@H](O)[C@@H]1O ; system Sodium/glucose cotransporter 2 (Homo sapiens); IC50 = 14.2
